Data credit: the nanobody polyreactivity screen of Harvey et al. (2022)

# Assay remarks: yeast display, Sf9 membrane polyspecificity reagent, FACS + sequencing; frameworks hold sequencing errors
Measure: polyreactivity (PSR sort gate)

Examples with their reported polyreactivity (PSR sort gate) follow.
Residue sequence	polyreactivity (PSR sort gate)
QVQLVESGGGLVQAGCSLRLSCAASGFTFRANGMGWYRQAPGKERELVATITSGGTTNYADSVKGRFTISRDNAKNTVYLQMNSLKPEDTAVYYCAKRFGPAYFRLYDYWGQGTQVTVSS	low polyreactivity
QGQLVESGGGLVQAGGSLRLSCAASGRTYDYNAMGWYRQAPWKEWELVAAISSGGSITHYADSVKGRFTISRDNAKNTVYFQMYSLKPEDTAVYYCNAAHLAHRFIGYTRWNYYYWGQGTQVTVTS	high polyreactivity
QVQLVESAGGLVQAGGSLRLSCAASGSTIYPNAMGWYRQAPGKERELVAVISSGGSTYYADSVKGRFTISRDNAKNTVYLQMNSLKPEDTAVYYCADERYYFPRSYRYGYWGQGTQVTVSS	low polyreactivity
QVQLVESGGGVVQAGGSLRISCAASGRTFGVYAMGWYREAPGKERELVAAINRSGTRTYYADSVKGRFSISRDNPKNTVYLPMNSLKPEDTAVYYCAASWYPGSRNYDYWGQGTQVSVSS	high polyreactivity

Then this sequence:
The sequence listed as QVQLVESGGGLVQAGGSLRLSCAASGLTFWYYDMGWYRQAPGKERELVAAISGTGSTYADSVKGRFTISRDNAKNTVYLQMNSLKPEDTAVYYCAADYSGTPYAVYWQWGDYDYWGQGTQVTVSS shows polyreactivity (PSR sort gate) equal to low polyreactivity

###

# Assay remarks: yeast display, Sf9 membrane polyspecificity reagent, FACS + sequencing; frameworks hold sequencing errors
Measure: polyreactivity (PSR sort gate)

Residue sequence	Measure	Experimental result
QVQLVESGGGLVQAGGSLRLSCAASGRIFSSYAMGWYRQAPGKERELVAAISKSGGNTYYADSVKGRFTISRDNAKNTVYLQMNSLKPEDTAVYYCDAVAPYTLYFWLYYWGQGTHVTVSS	polyreactivity (PSR sort gate)	high polyreactivity
QVQLVESGGGLVQAGGSHRLSCAASGSTFAYYAMGWYRQAPGKERELVATISERGGTTYYADSVKGRFTLSRDNAKNTVYFQMNILKPEVTAVYYCAADHSGYWTYYYDYYYWGQGTQVNVSS	polyreactivity (PSR sort gate)	low polyreactivity
QVQLVETGGGLVQAGGSLRITCAASGSIFSYYDMGLNRQAPGNEREMVAAFSWDGGDRTYADSVKGRFTISRDIAKNTVYLQMNSLKPEDSAVYYCAKNTGSYRRVNLDYWGQGTQVTVSS	polyreactivity (PSR sort gate)	low polyreactivity
QVQLVESGGGLVQAGGSLSLSCADSGSTIYRYAMGWNRQAPGKEREFVATISRSGGGTYYADSEKGRLTISRDNAMNTVYLQMISLKPEDTSVYYCAARDVVQAGYYVKKYDYWGQGTQVTVSS	polyreactivity (PSR sort gate)	high polyreactivity

Proceed to the following item.
QVHLVESGGGLVQAGGSLRLSCAASGSTFRFYAMGWYRQAPGKERELVATISRTGSTNYADSVKGRFTISRDNAKNTVYLQMNSLKPEDTAVYYCAAQRRRYPGYVQDDYWGQGTQVTVSS yielded polyreactivity (PSR sort gate) of high polyreactivity

###

# Assay remarks: yeast display, Sf9 membrane polyspecificity reagent, FACS + sequencing; frameworks hold sequencing errors
Measure: polyreactivity (PSR sort gate)

Residue sequence	Experimental result
QVQLVESGGGLVQAGGSLRLSCAASGRTFYRNAMGWYRQAPGKERELVATITRRGGSTYYADSVKGRFTISRDNAKNTVYLQMNSLKPEDTAVYYCAAGSKDLYRPYDYWGQGTQVTVSS	high polyreactivity
QVQLVESGGGLVQAGGSLRLSCAASGRTFYKNTMGWYRQAPGKERELVAGISQRGGRTYYADSVKGRFTISRDNANYTVYLQMNSLKPEDTAVYYCAVRSYGHGFDYWGQGNQVTVSS	high polyreactivity
QVQLVESVGGLVQAGGSLRLSCAASGFIFTHYAMGWYRQAPGKERELVAAISSGGSTYYADSVKGRFTISRDNAKNTVYLQMNSLKPEDTAVYYCAAVWPWRYYATGENYWGQGTHVTVSS	high polyreactivity
QVQLVESGGGLVQAGGSLRLSCAASGFTIVYYSMGWYRQAPGKERELVATISSGGGTNYADSVKGRFTISRDNAKNTVYLQMNSLTPEDTAVYYCAAEYYTGYFKYDYWGQGTQVTVSS	high polyreactivity
QVQLVESGAGLVQAGVSLRLSCAASGSILTDSAMGWYIQAPGKERELVATISNGGSTNYADSVKGRFTISRDNAKNTVYLKMNSLKPEDTAVYYCNAEPGVPSWELDYWGQGTQVTVSS	low polyreactivity

Quick note, polyreactivity (PSR sort gate) for QVQLVESGGGLVQAGGSLRLSCAASGLIFRSNAMGWYRQAPGKERELVAAISRNGQSTYYADSVKGRFTISRDNAKYTVYLQMNSLKPEDTAVFYCAARSRDKYDYWGQGTEVTVSS landed at high polyreactivity

Looking up QVQLVESGGGLVQAGGSLSLSCAASGSIFPRYTMGSYRQAPGKERELVAAISRSGGSTYYADSVKGRFTISRDNAKNTVYLQMNSLKPADTAVYYCDKSRPSKYDYWGQGTQVTVSS , I see its polyreactivity (PSR sort gate) listed as high polyreactivity

The recorded polyreactivity (PSR sort gate) for QVQLVESGGGLVQAGGSLRLSCAASGIIFWHYAMGRYIQAPGKERELVADISRRGGSTYYADSVKGRFTISRDNAKNTVYLQMNSLKPVDTAVYYCAARYHPGGYDSWGQGTQVTVSS is low polyreactivity

polyreactivity (PSR sort gate) for QDQLVESGGGLVQAGGSLRLSCAASGRTFHLYAMGWYRPAPGKERELVAAIRWTGVSTYYADSVKGRFTISRDNAKNTVYLEMNSLKPEDTAVYYCATKQRYRVSRDWSSYCYGYWGQGTQVTVSS is high polyreactivity

QVQLVESVGGLVQAGGSLRLSCAASGFIFRPYAMGWSRQAPGKERELVAAISWSGDRTYYADSVKGRFTISRDNAKNTVYLQMNSLKPEDTAVYYCAAEGVTRDYDYWGQGTQVTVSS has a reported polyreactivity (PSR sort gate) of low polyreactivity

Lab note: measured polyreactivity (PSR sort gate) of QVQLVESGGGLVQAGGSHRLSCAASGRTFWYYTMGWYRQAPGKERELVAAINWRGGTTYYADSVKGRFTISRDNAMNTVYLQMNSLKPEDTAVYYCAATHWAYSRVPYDYWGQGTQVTVSS was high polyreactivity
